Hello, the source for this data is patent US20260151494A1, in case you need it.

- MEASURED TARGET: T1, apical domain of cynomolgus CD71 (cynomolgus, UniProt A0A2K5X958 189-383)
- T1 construct: domain: apical domain; also called Cyno apical domain
- T1 sequence (A0A2K5X958 entry or part of it): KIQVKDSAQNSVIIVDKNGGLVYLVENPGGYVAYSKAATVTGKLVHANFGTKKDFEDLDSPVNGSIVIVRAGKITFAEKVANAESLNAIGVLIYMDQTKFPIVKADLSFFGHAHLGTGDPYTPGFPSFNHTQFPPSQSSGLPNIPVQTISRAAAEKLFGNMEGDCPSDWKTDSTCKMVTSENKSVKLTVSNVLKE
- ASSAY PROCEDURE: primary ELISA, signal ratio to HSA
Below, each entry is listed alongside its reported Cyno apical domain:HSA.
RESULT TYPE: Cyno apical domain:HSA

BINDER	VALUE MEASURED
CD71-binding FN3 domain of SEQ ID NO: 142 (designed binder) MSLPAPKNLVVSRVTEDSARLSWTASDAAFDSFHIWYFEKANEGEAIPLVVPGSERSYDLTGLKPGTEYDVDIGGVKGGAWSIPLGARFTT	95
CD71-binding FN3 domain of SEQ ID NO: 175 (designed binder) MSLPAPKNLVVSRVTEDSARLSWTAPDAAFDSFEIAYQELSLWGEAIVLTVPGSERSYDLTGLKPGTEYVVFIGGVKGGVWSVPLSAIFTT	91
